Tested on: corn (Zea mays)
Test: Test A postemergence, corn
Assay type: in vivo
Details: 500 g ai/ha, visual injury, 0 to 100 scale (0 no effect, 100 complete control), approximately 10 days
EXPERIMENTAL ENDPOINT: Plant response rating, Corn

In [3]: df
Out[3]:
                                    molecule        experimental_endpoint  quantitative_readout
 0  O=C1NCC(c2cccc(OCC3CC3)c2)C1C(=O)Nc1ccccc1F (stereo not shown) [Compound 11]  Plant response rating, Corn                    20
 1  O=C1NCC(c2cccc(Cn3cncn3)c2)C1C(=O)Nc1ccccc1F (stereo not shown) [Compound 31]  Plant response rating, Corn                     0
 2  CN1CC(c2cccc(Oc3ncc(F)cn3)c2)C(C(=O)Nc2ccccc2F)C1=O (single isomer, unassigned) [Compound 36]  Plant response rating, Corn                    90
 3  O=C1NCC(c2cccc(OCc3ccccc3)c2)C1C(=O)Nc1ccccc1Cl (stereo not shown) [Compound 67]  Plant response rating, Corn                     0
 4  O=C1NCC(c2cccc(COc3ccccc3)c2)C1C(=O)Nc1ccccc1Cl (stereo not shown) [Compound 18]  Plant response rating, Corn                     0
 5  CN1CC(c2cccc(Oc3ccc(C(F)(F)F)cn3)c2)C(C(=O)Nc2cccc(F)c2F)C1=O (single isomer, unassigned) [Compound 44]  Plant response rating, Corn                    80
 6  O=C1NCC(c2cccc(Oc3ncc(F)cn3)c2)C1C(=O)Nc1ccccc1F (single isomer, unassigned) [Compound 39]  Plant response rating, Corn                    70
 7  CN1CC(c2cccc(Oc3ccc(C(F)(F)F)cn3)c2)C(C(=O)Nc2ccccc2F)C1=O (single isomer, unassigned) [Compound 43]  Plant response rating, Corn                    80
 8  O=C1NCC(c2cccc(Oc3ccc(C(F)(F)F)cn3)c2)C1C(=O)Nc1cccc(F)c1F (single isomer, unassigned) [Compound 47]  Plant response rating, Corn                    80
 9  O=C1NCC(c2cccc(OC(F)(F)C(F)OC(F)(F)F)c2)C1C(=O)Nc1ccccc1F (stereo not shown) [Compound 40]  Plant response rating, Corn                     0
10  O=C1NCC(c2cccc(OCC3OCCO3)c2)C1C(=O)Nc1ccccc1F (stereo not shown) [Compound 8]  Plant response rating, Corn                    20
11  CC1(COc2cccc(C3CNC(=O)C3C(=O)Nc3ccccc3F)c2)COC1 (stereo not shown) [Compound 14]  Plant response rating, Corn                     0
12  O=C1NCC(c2cccc(OCC3OCCO3)c2)C1C(=O)Nc1ccccc1C(F)(F)F (stereo not shown) [Compound 5]  Plant response rating, Corn                     0
13  O=C1NCC(c2cccc(COc3ccccc3)c2)C1C(=O)Nc1ccc(F)c(F)c1F (stereo not shown) [Compound 17]  Plant response rating, Corn                     0
14  CN1CC(c2cccc(Oc3ccc(F)cc3)c2)C(C(=O)Nc2ccccc2F)C1=O (single isomer, unassigned) [Compound 45]  Plant response rating, Corn                    50
15  O=C1NCC(c2cccc(Oc3ccccn3)c2)C1C(=O)Nc1ccc(F)c(F)c1F (stereo not shown) [Compound 42]  Plant response rating, Corn                     0

Data origin: patent US10405547B2
